pKi for Adenosine receptor A2a (Homo sapiens) - collated from the literature.
Scale: pKi equals -log10([C]), with [C] in mol/L.

>  <MOLECULE>
C[C@@H]1CN(c2c(-c3ccccc3)nc(N)n3c(=O)n(C[C@H]4CCCO4)nc23)C[C@H](C)O1

>  <RECORDED_VALUE>
8.00

$$$$
>  <MOLECULE>
Cc1cc(-c2c(-c3ccccc3)nc(N)n3c(=O)n(Cc4ccc(F)cn4)nc23)cc2c1N=NC2

>  <RECORDED_VALUE>
9.60

$$$$
>  <MOLECULE>
CCNC(=O)C1OC(n2cnc3c(N)nc(C#CCOc4ccccc4)nc32)C(O)C1O (configuration not stated)

>  <RECORDED_VALUE>
6.74

$$$$
>  <MOLECULE>
Cn1c(=O)c2[nH]c(-c3ccc([N+](=O)[O-])cc3)nc2n(C)c1=O

>  <RECORDED_VALUE>
5.60

$$$$
>  <MOLECULE>
Cc1cc(-c2sc(NC(=O)N3CCC4(CC3)CNC(=O)O4)nc2-c2cccc(C#N)c2)cc(C)n1

>  <RECORDED_VALUE>
9.23

$$$$

Provide pKi, tested on Adenosine receptor A2a (Homo sapiens), for CCNC(=O)C1OC(n2cnc3c(N)nc(C#Cc4ccco4)nc32)C(O)C1O (configuration not stated) .
Sequence (P29274 whole entry): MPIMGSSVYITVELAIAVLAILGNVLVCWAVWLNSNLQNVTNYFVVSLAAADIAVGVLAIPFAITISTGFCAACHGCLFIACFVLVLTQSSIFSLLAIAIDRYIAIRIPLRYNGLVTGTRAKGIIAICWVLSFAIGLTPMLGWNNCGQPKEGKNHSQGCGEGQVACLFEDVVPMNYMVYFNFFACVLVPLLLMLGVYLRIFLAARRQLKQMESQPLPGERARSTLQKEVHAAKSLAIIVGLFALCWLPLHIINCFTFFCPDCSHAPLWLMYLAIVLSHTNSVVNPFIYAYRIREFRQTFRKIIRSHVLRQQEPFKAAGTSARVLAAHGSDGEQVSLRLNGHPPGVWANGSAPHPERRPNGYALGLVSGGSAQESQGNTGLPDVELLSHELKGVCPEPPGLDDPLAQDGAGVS
6.29

Provide pKi, tested on Adenosine receptor A2a (Homo sapiens), for Cc1cc(-c2sc(NC(=O)N3CC[C@@H]3C)nc2-c2cccc(C#N)c2)cc(C)n1 .
8.95

Provide pKi, tested on Adenosine receptor A2a (Homo sapiens), for CNC(=O)[C@H]1O[C@@H](n2cnc3c(NCc4ccc(N)c(I)c4)ncnc32)[C@H](O)[C@@H]1O .
6.33

Provide pKi, tested on Adenosine receptor A2a (Homo sapiens), for Cc1cc(-c2sc(NC(=O)N3CCC4(CCCC(=O)N4)CC3)nc2-c2cccc(C#N)c2)cc(C)n1 .
8.64

Provide pKi, tested on Adenosine receptor A2a (Homo sapiens), for N#CC(N=Nc1ccc(S(N)(=O)=O)cc1)c1nc2ccccc2[nH]1 (configuration not stated) .
5.30

Provide pKi, tested on Adenosine receptor A2a (Homo sapiens), for CCCn1c(=O)c2[nH]c(-c3ccc(Cl)cc3N)nc2n(CCC)c1=O .
7.04

Provide pKi, tested on Adenosine receptor A2a (Homo sapiens), for OC[C@H]1O[C@@H](n2cnc3c(NC4CCCC4)ncnc32)[C@H](O)[C@@H]1O .
6.10

Provide pKi, tested on Adenosine receptor A2a (Homo sapiens), for CCCn1nc2c(N3C[C@@H](C)O[C@@H](C)C3)c(-c3ccccc3)nc(N)n2c1=O .
7.20
